folding stability dG unfold listing for selected sequences.
- measurement-description: folding stability dG unfold from chymotrypsin proteolysis; higher = more stable
Response body: numeric value in kcal/mol, unit text excluded.

In the examples that follow, each entry is paired with its recorded folding stability dG unfold.
Given SAGGSAGGSAGGNIVDRLQERFPNFPPKSVDVKMNPNGNRSVDIKFDGPPEMRDALLELSAGGSAGGSAGGS [r10_1089_TrROS] , state its recorded folding stability dG unfold.
0.128

Given SAGGLLEELGLEIEEVEVEVEEVEVGQTVRIRVKVKGEDGEEFEIELEIRLPPPPVEVEEEVEEEEESAGGS [r8_216_TrROS_Hall] , state its recorded folding stability dG unfold.
1.83

Given SAGRIEIDKIEPGKPVRIKIKIEMPDPNGKKRKMDFTRRVRVDPENGMIYIPITMPNGRPIPIMINVKKSAG [r5_743_TrROS] , state its recorded folding stability dG unfold.
0.552

Given SAGGEVKVVKAEVTTLPDGRKLVRLLLEVGGKFYPVLIDVHPDGVRITFPDGKTATIKLEDLKNLTWSAGGS [r16_593_TrMRF] , state its recorded folding stability dG unfold.
1.73

Given SAGGMYVLPIDLDPASLTEEERLAVARELAEELYAAGVPGDVMLIIPREEKPLTITIDFATGEVTVVDSAGG [r19_204_JUSTAS] , state its recorded folding stability dG unfold.
1.22

Continuing:
Given SDPDAKLLPATFTFRDPLTGEEVTVEVTVYETSGYLLAPAKVTVTLPTKPRTLTATLLVDENGNVHLFVSSA [r9_1015_TrMRF] , state its recorded folding stability dG unfold.
4.31

Given SSMSSSPLGSDPATGTTYYLSVSNNSTTLSTVTPAPVLPISPEELEKIAKELAKKNPKLAKKAKELAEKLKS [r1_330_JUSTAS] , state its recorded folding stability dG unfold.
0.123

Given SAGGGLALRLEVETERVEREVFDADGRLVAREEVEVRRVRLELVPLPPAPPPPTVTVRPGDPRDPRLRSAGG [r13_508_TrROS_Hall] , state its recorded folding stability dG unfold.
3.18

Recorded values, source the supplement of paper PMC12764529.
